The reported measurements were obtained from the supplement of paper PMC8728848.

- TARGET_DESC: Neu5Ac(a2-6)Gal(b1-4)GlcNAc(b1-3)Gal(b1-4)[Fuc(a1-3)]GlcNAc(b1-3)Gal(b1-4)[Fuc(a1-3)]GlcNAc
- METHOD_NOTES: glycan array binding signal (z-score within array); higher = stronger binding
- APPLIED_CONDITIONS: glycan notation: IUPAC condensed, linker removed
Shown is part of a subset that was picked to be rich in the strongest signals.
Assignment: determine reported glycan array binding signal (z-score) for the given binders.
Numbers only.

{"BINDER": "Pwp2 (Candida glabrata) (protein) MGSSHHHHHHSSGLVPRGSHMASKNPVELNNVCTFPNDYGRIPGFTVLVGRLGLLISASDYKELLRYPGAFLIATQDTMTTSPNFELTGFPFFTGLYGLTVFPLDLLVELRGYFVPPNSGQYTFTLSDSDDAAIIFLGNPSAFPCGDLQNWPKPSEEDITVTDHLFPSRTLYLIEGVAYPMRIAYYNGIGAGRLNAAFIDPSGTRHTNWEGYIWQYDPCSTCTYS", "glycan array binding signal (z-score)": -0.077}
{"BINDER": "Als3-2 (Candida albicans) (protein) KTITGVFNSFNSLTWSNAATYNYKGPGTPTWNAVLGWSLDGTSASPGDTFTLNMPCVFKFTTSQTSVDLTAHGVKYATCQFQAGEEFMTFSTLTCTVSNTLTPSIKALGTVTLPLAFNVGGTGSSVDLEDSKCFTAGTNTVTFNDGGKKISINVDFERSNVDPKGYLTD", "glycan array binding signal (z-score)": -0.584}
{"BINDER": "Pwp7 (Candida glabrata) (protein) MGSSHHHHHHSSGLVPRGSHMASKNPVDFPNLCQYPNLDGAVAGFDTEIYNADPSILINFSLWPILQFPKEWHKTIGRAITTQTNFKLPASDTTLFGVSIPTQNILIEFRGYFIPPKSGTYTFALYLTDDGSAMFLGNDAAFPCGNITSWSNPTNDQVSVSDYDPKKKTLTVYMVAGVAYPLRIAYYNREKGGSLTASFVDPDGLTHSDWNGYIWTLPSCDNCKYS", "glycan array binding signal (z-score)": -0.43}
{"BINDER": "Pwp4 (Candida glabrata) (protein) MGSSHHHHHHSSGLVPRGSHMASVGNPITVSNVCSFPKNWHRTAGFRALTARLGIGIQSDSYKELLNYPGTFQLTTQQSSTTKPNFQISGLVGNIYGLTIVPSYLLVELTGYFVPPVSGEYTFSLEGSDDAAIIFIANPSTFKCGHVEDWPTAYDNDVTVTESIHATRTIYMIEGVAYPIRIAYYNGLSLGKLQASFTDPEGVKRVDWNGYIWRYDSCDTCSYV", "glycan array binding signal (z-score)": -0.388}

Now consider the entry below.
Consider the binder FaeGab (Escherichia coli) (protein) WMTGDFNGSVDIGGSITADDYRQKWEWKVGTGLNGFGNVLNDLTNGGTKLTITVTGNKPILLGRTKEAFATPVSGGVDGIPQIAFTDYEGASVKLRNTDGETNKGLAYFVLPMKNAEGTKVGSVKVNASYAGVFGKGGVTSADGELFSLFADGLRAIFYGGLTTTVSGAALTSGSAAAARTELFGSLSRNDILGQIQRVNANITSLVDVAGSYREDMEYTDGTVVSAAYALGIANGQTIEATFNQAVTTSTQWSAPLNVAITYY and give its recorded glycan array binding signal (z-score).
-0.433
